# TARGET: von Hippel-Lindau disease tumor suppressor/Tyrosine-protein phosphatase non-receptor type 2 (Homo sapiens, UniProt P17706+P40337)
# Sequence (P17706 whole entry, looked up): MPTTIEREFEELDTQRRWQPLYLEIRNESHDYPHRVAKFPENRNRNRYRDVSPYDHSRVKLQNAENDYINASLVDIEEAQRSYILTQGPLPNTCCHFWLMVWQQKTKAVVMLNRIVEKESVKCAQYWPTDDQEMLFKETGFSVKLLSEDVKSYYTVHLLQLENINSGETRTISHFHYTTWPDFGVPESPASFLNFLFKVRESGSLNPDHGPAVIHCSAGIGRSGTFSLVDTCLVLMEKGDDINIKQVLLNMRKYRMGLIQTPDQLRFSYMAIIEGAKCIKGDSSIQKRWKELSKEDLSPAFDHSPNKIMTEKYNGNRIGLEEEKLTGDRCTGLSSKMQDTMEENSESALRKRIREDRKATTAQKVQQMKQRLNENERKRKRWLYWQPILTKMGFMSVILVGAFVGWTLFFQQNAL
# Sequence (P40337 whole entry, looked up): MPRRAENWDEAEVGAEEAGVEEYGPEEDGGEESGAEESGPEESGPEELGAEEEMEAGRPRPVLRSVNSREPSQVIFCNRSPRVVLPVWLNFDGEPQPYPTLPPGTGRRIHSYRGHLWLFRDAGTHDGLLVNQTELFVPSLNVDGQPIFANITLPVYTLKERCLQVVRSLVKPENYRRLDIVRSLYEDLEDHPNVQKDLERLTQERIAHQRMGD
# MEASUREMENT_PROTOCOL: PROTAC activity at VHL/PTPN2 in human Jurkat cells assessed as induction of PTPN2 degradation at 100 nM by Western blot analysis relative to control
# Format: cell-based
MEASURED_QUANTITY: Activity (%)

[[record]]
given_smiles = "Cc1ncsc1-c1ccc([C@H](C)NC(=O)[C@@H]2C[C@@H](O)CN2C(=O)[C@@H](NC(=O)CNC(=O)Cn2cc(-c3ccc4cc(O)c(N5CC(=O)NS5(=O)=O)c(F)c4c3)cn2)C(C)(C)C)cc1"
measured_quantity = "Activity"
unit_abbreviation = "%"
reported_result = -18

[[record]]
given_smiles = "Cc1ncsc1-c1ccc([C@H](C)NC(=O)[C@@H]2C[C@@H](O)CN2C(=O)[C@@H](NC(=O)CCCNC(=O)Cn2cc(-c3ccc4cc(O)c(N5CC(=O)NS5(=O)=O)c(F)c4c3)cn2)C(C)(C)C)cc1"
measured_quantity = "Activity"
unit_abbreviation = "%"
reported_result = 26

[[record]]
given_smiles = "Cc1ncsc1-c1ccc([C@H](C)NC(=O)[C@@H]2C[C@@H](O)CN2C(=O)[C@@H](NC(=O)CCCCCCNC(=O)Cn2cc(-c3ccc4cc(O)c(N5CC(=O)NS5(=O)=O)c(F)c4c3)cn2)C(C)(C)C)cc1"
measured_quantity = "Activity"
unit_abbreviation = "%"
reported_result = 40

[[record]]
given_smiles = "Cc1ncsc1-c1ccc([C@H](C)NC(=O)[C@@H]2C[C@@H](O)CN2C(=O)[C@@H](NC(=O)CNC2CCN(C(=O)Cn3cc(-c4ccc5cc(O)c(N6CC(=O)NS6(=O)=O)c(F)c5c4)cn3)CC2)C(C)(C)C)cc1"
measured_quantity = "Activity"
unit_abbreviation = "%"
reported_result = -17

[[record]]
given_smiles = "Cc1ncsc1-c1ccc([C@H](C)NC(=O)[C@@H]2C[C@@H](O)CN2C(=O)[C@@H](NC(=O)CCCCCCCNC(=O)Cn2cc(-c3ccc4cc(O)c(N5CC(=O)NS5(=O)=O)c(F)c4c3)cn2)C(C)(C)C)cc1"
measured_quantity = "Activity"
unit_abbreviation = "%"
reported_result = 37

[[record]]
given_smiles = "Cc1ncsc1-c1ccc([C@H](C)NC(=O)[C@@H]2C[C@@H](O)CN2C(=O)[C@@H](NC(=O)CCCCNC(=O)Cn2cc(-c3ccc4cc(O)c(N5CC(=O)NS5(=O)=O)c(F)c4c3)cn2)C(C)(C)C)cc1"
measured_quantity = "Activity"
unit_abbreviation = "%"
reported_result = 29

[[record]]
given_smiles = "Cc1ncsc1-c1ccc([C@H](C)NC(=O)[C@@H]2C[C@@H](O)CN2C(=O)[C@@H](NC(=O)Cn2cc(-c3ccc4cc(O)c(N5CC(=O)NS5(=O)=O)c(F)c4c3)cn2)C(C)(C)C)cc1"
measured_quantity = "Activity"
unit_abbreviation = "%"
reported_result = -3

